# Macrophage MFI values compiled below
- SUBJECT_OF_TEST: T1, human CD33 (human, UniProt P20138 18-364)
- T1 construct: CD33 on human primary dendritic cells, macrophages, monocytes and T cells and on CHO cells expressing recombinant human CD33; also called Siglec-3; hCD33
- ASSAY_DETAILS: flow cytometry, human primary macrophages;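 note: binding of CD33 antibodies at 10 µg/ml to human primary macrophages, 1 h on ice, detected with PE-labelled secondary antibody by flow cytometry, reported as MFI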
No unit in the answer, only the number.

C-36 (antibody, V domains shown, human IgG1) VH: EVQLVESGGGLVQPGGSLRLSCAASGFTFSSYWMSWVRQAPGKGLEWVANIKQDGSEKYYVDSVKGRFTISRDNAKNSLYLQMNSLRAEDTAVYYCARDGQYYPAYGMDVWGQGTTVTVSS VL: EIVMTQSPATLSVSPGERATLSCRASQSVSSNLAWYQQKPGQAPRLLIYGASTRATGIPARFSGSGSGTEFTLTISSLQSEDFAVYYCQQYFDLPTFGGGTKVEIK : 853

Then this binder:
Name the recorded Macrophage MFI of the item C-23 (antibody, V domains shown, human IgG1) VH: QVQLQESGPGLVKPSETLSLTCAVSGYSISSGYYWGWIRQPPGKGLEWIGTIYHSGSTYYNPSLKSRVTISVDTSKNQFSLKLSSVTAADTAVYYCAREVGVVGALPYFDYWGQGTLVTVSS VL: DIQMTQSPSSLSASVGDRVTITCRASQSISSYLNWYQQKPGKAPKLLIYGASSLQSGVPSRFSGSGSGTDFTLTISSLQPEDFATYYCQQASSSPPTFGGGTKVEIK in your answer.
771
